Target: Prostaglandin G/H synthase 2 (Homo sapiens, UniProt P35354)
Sequence (P35354 whole entry): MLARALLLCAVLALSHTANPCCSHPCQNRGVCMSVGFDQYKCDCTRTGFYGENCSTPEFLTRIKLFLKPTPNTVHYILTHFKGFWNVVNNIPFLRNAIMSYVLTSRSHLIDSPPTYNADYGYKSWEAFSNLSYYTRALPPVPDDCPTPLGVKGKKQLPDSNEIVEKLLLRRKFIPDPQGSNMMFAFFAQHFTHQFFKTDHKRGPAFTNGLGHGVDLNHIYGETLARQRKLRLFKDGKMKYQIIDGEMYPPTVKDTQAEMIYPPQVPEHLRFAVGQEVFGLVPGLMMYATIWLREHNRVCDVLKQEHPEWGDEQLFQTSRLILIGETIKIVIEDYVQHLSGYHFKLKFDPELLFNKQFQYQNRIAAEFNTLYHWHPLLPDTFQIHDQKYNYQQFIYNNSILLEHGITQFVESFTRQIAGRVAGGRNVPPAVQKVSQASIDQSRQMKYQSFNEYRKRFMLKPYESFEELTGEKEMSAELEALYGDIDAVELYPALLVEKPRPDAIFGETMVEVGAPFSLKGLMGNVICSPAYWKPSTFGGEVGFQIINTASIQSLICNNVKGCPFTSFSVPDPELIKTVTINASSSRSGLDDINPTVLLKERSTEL
QUANTITY_NAME: IC50

As a guide, the following entries are already answered.
CC(C(=O)O)c1ccc2c(c1)[nH]c1ccccc12 (racemic); > 100 µM
C[C@H](C(=O)O)c1ccc2c3cc(Cl)ccc3n(C(=O)c3cocn3)c2c1; 2.5 µM
CC(C(=O)O)c1ccc2c3cc(Cl)ccc3n(C(=O)c3ccccc3Cl)c2c1 (racemic); > 100 µM

State the recorded IC50 for this entry: CCCCNC(=O)n1c2ccc(Cl)cc2c2ccc(C(C)C(=O)O)cc21 (racemic)
> 100 µM

Now try COc1ccccc1Cn1c2ccc(Cl)cc2c2ccc(C(C)C(=O)O)cc21 (racemic) .
> 100 µM

Check CC(C(=O)O)c1ccc2c3cc(Cl)ccc3n(C(=O)c3ccc(Cl)cc3)c2c1 (racemic) too.
72.3 µM

Repeat with CC(C(=O)O)c1ccc2c3cc(Cl)ccc3n(C(=O)c3cnc[nH]3)c2c1 (racemic)
> 100 µM

And then C[C@H](C(=O)O)c1ccc2c3cc(Cl)ccc3n(C(=O)c3ccc(Cl)cc3)c2c1 , what is it?
46.5 µM

Try the compound CCCCCCNC(=O)n1c2ccc(Cl)cc2c2ccc(C(C)C(=O)O)cc21 (racemic)
> 100 µM

----------
Target: Prostaglandin G/H synthase 1 (Ovis aries, UniProt P05979)
Sequence (P05979 whole entry): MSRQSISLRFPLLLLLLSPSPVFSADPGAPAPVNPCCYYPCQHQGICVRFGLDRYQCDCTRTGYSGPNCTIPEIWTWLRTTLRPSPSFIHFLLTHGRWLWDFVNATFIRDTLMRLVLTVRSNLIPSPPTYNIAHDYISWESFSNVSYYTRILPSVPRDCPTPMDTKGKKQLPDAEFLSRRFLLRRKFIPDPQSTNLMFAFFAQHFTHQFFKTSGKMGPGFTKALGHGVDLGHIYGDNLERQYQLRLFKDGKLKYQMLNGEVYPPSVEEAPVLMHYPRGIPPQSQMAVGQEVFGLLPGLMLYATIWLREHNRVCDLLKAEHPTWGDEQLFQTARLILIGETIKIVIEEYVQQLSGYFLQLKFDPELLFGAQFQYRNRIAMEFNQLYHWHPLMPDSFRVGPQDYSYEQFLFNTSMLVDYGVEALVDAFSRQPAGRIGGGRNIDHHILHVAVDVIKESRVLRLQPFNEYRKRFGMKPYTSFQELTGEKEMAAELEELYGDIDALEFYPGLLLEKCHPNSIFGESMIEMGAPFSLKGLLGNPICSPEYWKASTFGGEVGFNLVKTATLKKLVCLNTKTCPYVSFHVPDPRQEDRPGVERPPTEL
Test: Inhibition of ovine COX1 pre-incubated for 10 mins before arachidonic acid substrate addition by enzyme immunoassay
pIC50: −log10 of the molar value.
Recorded pIC50 for the following compounds

Previously resolved entries follow.
CC(C(=O)O)c1ccc2c3cc(Cl)ccc3n(C(=O)c3cocn3)c2c1 (racemic); 4.52
C[C@@H](C(=O)O)c1ccc2c3cc(Cl)ccc3n(C(=O)c3cocn3)c2c1; < 4.00
CC(C(=O)O)c1ccc2c3cc(Cl)ccc3n(C(=O)c3ccc(Cl)cc3)c2c1 (racemic); 4.13

Could you tell me which pIC50 is on file for CC(C(=O)O)c1ccc2c3cc(Cl)ccc3n(C(=O)NC3CCCCC3)c2c1 (racemic) ?
< 4.00

// same read-out, input: Cc1cccnc1NC(=O)C(C)c1ccc(CC(C)C)cc1 (centres undefined)
3.77

Cool, now COC(=O)C(C)c1ccc2c(c1)[nH]c1ccc(Cl)cc12 (racemic)
< 4.00

Repeat for the following compound: CCCCNC(=O)n1c2ccc(Cl)cc2c2ccc(C(C)C(=O)O)cc21 (racemic)
< 4.00

Moving on to CC(C(=O)O)c1ccc2c3cc(Cl)ccc3n(C(=O)c3ccc(Cl)c(Cl)c3)c2c1 (racemic)
< 4.00

How about this compound: COc1ccccc1Cn1c2ccc(Cl)cc2c2ccc(C(C)C(=O)O)cc21 (racemic)
< 4.00

Here is the next compound: C[C@H](C(=O)O)c1ccc2c(c1)[nH]c1ccc(Cl)cc12
5.25

Another: CC(C(=O)O)c1ccc2c3cc(Cl)ccc3n(C(=O)c3cnc[nH]3)c2c1 (racemic)
4.89

Proceed to CC(C(=O)O)c1ccc2c3cc(Cl)ccc3n(C(=O)c3ccccc3)c2c1 (racemic)
< 4.00

Let us now turn to CCCCCCN(C)C(=O)n1c2ccc(Cl)cc2c2ccc(C(C)C(=O)O)cc21 (racemic)
< 4.00

Follow-up item: CC(C(=O)O)c1ccc2c3cc(Cl)ccc3n(C(=O)c3ccccc3Cl)c2c1 (racemic)
< 4.00
